System: Ditylenchus dipsaci
Test: proportion of mobile D. dipsaci (mixed stage) relative to DMSO control (fraction of DMSO control); higher = more viable, less nematicidal, active = 0.86 or less; extreme values may be limits of the assay
Settings: 60 µM; 5 days; temperature: 20 °C

>  <compound>
CCOC(=O)c1sc(NC(=O)CSc2nnc(-c3ccc(Cl)cc3)o2)c(C#N)c1C

>  <targetOrTestSystem>
Ditylenchus dipsaci

>  <proportion of mobile D. dipsaci>
1

$$$$
>  <compound>
COc1ccc(Cl)cc1-c1noc(-c2ccccc2)n1

>  <targetOrTestSystem>
Ditylenchus dipsaci

>  <proportion of mobile D. dipsaci>
1

$$$$
>  <compound>
Brc1cccc(-c2nc(-c3ccccc3)no2)c1

>  <targetOrTestSystem>
Ditylenchus dipsaci

>  <proportion of mobile D. dipsaci>
1

$$$$
>  <compound>
O=S(=O)(CCC(F)=C(F)F)c1ncc(Cl)s1 [fluensulfone]

>  <targetOrTestSystem>
Ditylenchus dipsaci

>  <proportion of mobile D. dipsaci>
1

$$$$
>  <compound>
Clc1ccccc1OCc1nc(-c2cccs2)no1

>  <targetOrTestSystem>
Ditylenchus dipsaci

>  <proportion of mobile D. dipsaci>
1

$$$$
>  <compound>
Clc1ccc(OCc2nc(-c3ccccc3)no2)c(Cl)c1

>  <targetOrTestSystem>
Ditylenchus dipsaci

>  <proportion of mobile D. dipsaci>
1

$$$$
>  <compound>
COc1cccc(-c2noc(-c3cc(C)ccc3C)n2)c1

>  <targetOrTestSystem>
Ditylenchus dipsaci

>  <proportion of mobile D. dipsaci>
1

$$$$
>  <compound>
COc1ccc(-c2nnc(SCC(=O)Nc3ccccc3C(C)C)o2)cc1

>  <targetOrTestSystem>
Ditylenchus dipsaci

>  <proportion of mobile D. dipsaci>
1

$$$$
>  <compound>
CCOc1ccccc1-c1nc(-c2ccc(Br)cc2)no1

>  <targetOrTestSystem>
Ditylenchus dipsaci

>  <proportion of mobile D. dipsaci>
1

$$$$
>  <compound>
Brc1ccccc1-c1nc(-c2ccccc2)no1

>  <targetOrTestSystem>
Ditylenchus dipsaci

>  <proportion of mobile D. dipsaci>
1

$$$$
>  <compound>
FC(F)(F)c1cccc(-c2noc(-c3cccs3)n2)c1

>  <targetOrTestSystem>
Ditylenchus dipsaci

>  <proportion of mobile D. dipsaci>
1

$$$$
>  <compound>
Cc1ccc(OCc2nc(-c3ccc4c(c3)OCO4)no2)cc1C

>  <targetOrTestSystem>
Ditylenchus dipsaci

>  <proportion of mobile D. dipsaci>
1

$$$$

###

Tested on: Meloidogyne hapla J2
Experiment: proportion of mobile M. hapla J2 relative to DMSO control (fraction of DMSO control); higher = more viable, less nematicidal, active = 0.7 or less
Conditions: 60 µM; 5 days; temperature: 20 °C

>  <smilesString>
CC(C)(C)NC(=O)CSc1nnc(-c2ccc(C(C)(C)C)cc2)o1

>  <proportion of mobile M. hapla J2>
1.02

$$$$
>  <smilesString>
CCc1ccc(C(=O)Nc2ccccc2-c2nc(-c3ccncc3)no2)cc1

>  <proportion of mobile M. hapla J2>
1

$$$$
>  <smilesString>
Fc1cccc(-c2nc(-c3ccccc3)no2)c1

>  <proportion of mobile M. hapla J2>
0.867

$$$$
>  <smilesString>
COc1cccc(CSc2nnc(-c3ccco3)n2C)c1

>  <proportion of mobile M. hapla J2>
0.965

$$$$
>  <smilesString>
Cc1cc(OCc2nc(-c3ccncc3)no2)cc(C)c1Br

>  <proportion of mobile M. hapla J2>
1.03

$$$$
>  <smilesString>
Cc1ccc(-c2noc(COc3ccc(Cl)cc3)n2)cc1

>  <proportion of mobile M. hapla J2>
1.02

$$$$
>  <smilesString>
Cc1ccccc1OCc1nc(-c2cccc(C(F)(F)F)c2)no1

>  <proportion of mobile M. hapla J2>
0.946

$$$$
>  <smilesString>
O=C(CSc1nnc(-c2cccc(F)c2)o1)Nc1ccccc1C(=O)c1ccccc1

>  <proportion of mobile M. hapla J2>
0.889

$$$$
>  <smilesString>
Cc1ccc(-c2nc(-c3ccccc3Cl)no2)c(Cl)c1

>  <proportion of mobile M. hapla J2>
0.942

$$$$
>  <smilesString>
Cc1ccc(-c2nnc(SCC(=O)NCCc3ccccc3)o2)cc1

>  <proportion of mobile M. hapla J2>
1.01

$$$$
>  <smilesString>
Clc1ccc(-c2noc(-c3ccncc3)n2)cc1

>  <proportion of mobile M. hapla J2>
0.784

$$$$
>  <smilesString>
Clc1ccc(-c2nc(-c3ccncc3)no2)cc1

>  <proportion of mobile M. hapla J2>
1.03

$$$$
